Each entry below lists one item and its recorded EC50 value.
- subject of test: T1, human CD27L on the surface of cells (human, UniProt P32970 1-193)
- T1 construct: native on Raji and 786-0 cells, recombinant on 293 cells; also called CD70; TNFSF7
- T1 sequence: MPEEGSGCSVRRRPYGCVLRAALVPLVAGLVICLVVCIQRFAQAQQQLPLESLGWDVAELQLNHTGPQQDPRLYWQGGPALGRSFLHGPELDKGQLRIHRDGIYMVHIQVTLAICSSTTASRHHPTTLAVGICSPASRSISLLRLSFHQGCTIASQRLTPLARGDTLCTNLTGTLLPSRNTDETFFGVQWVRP
- protocol: binding to cells with native human CD27L (column 'Native cell Avidity EC50 nM'); cell line and method not stated for the figure

// known answers, use as guide
binder	EC50
Ab4 (antibody, human IgG1, kappa, V domains shown, Fully human IgG1; also called A4; unconjugated parental Ab4) VH: QVQLVESGGGVVQPGRSLRLSCAASGFTFSNYGIHWVRQAPGKGLEWVAVIWYDGSNKYYADSVKGRFTISRDNSKNTLYLQMNSLRAEDTAVYYCARDGGYSGYDSGFDYWGQGTLVTVSS VL: DIVMTQSPLSLPVTPGEPASISCRSSQSLLNSNGYNYLDWYLQKPGQSPQFLIYLGSYRASGVPDRFSGSGSGTDFTLRISRVEAEDVGVYYCIQTLQTPFTFGPGTKVDIKR	0.25 nM
Ab2 (antibody, human IgG1, kappa, V domains shown, Fully human IgG1 from XenoMouse hybridoma) VH: QVQLQESGPGLVKPSQTLSLTCTVSGDSIISGGYYWSWIRQHPGKGLEWIGYIFYSGSTDYNPSLKSRVTISVDTSKNQFSLKLSSVTAADTAVYYCARSGYSYALFDHWGQGTLVTVSS VL: DIQMTQSPSSLSASVGDRVTISCRASQFIGRYFNWYQQQPGKAPKVLIYAESSLQSGVPSRFSGSGSGTEFTLTISSLQPEDFARYYCQQSYSTPWTFGQGTKVEIKR	0.24 nM
Ab5 (antibody, human IgG1, kappa, V domains shown, Fully human IgG1 from XenoMouse hybridoma) VH: QVQLVQSGAEVKKPGASVKVSCKASGYTFTSYDINWVRQATGQGLEWMGWMNPNSGNTGYAQKFQGRVTMTRNTSISTAYMELSSLRSEDTAVYYCARGYDFWSGYYYYYYGMDVWGQGTTVTVSS VL: EIVLTQSPGTLSLSPGERATLSCRASQSVSSSYLAWYQQRPGQAPRLLIYGASSRATGIPDRFSGSGSGTDFTLTISSLEPEDFAVYYCLQSGSSVPLTFGGGTKVEIKR	0.66 nM

Now, please, on to the next binder.
Report EC50 for Ab3 (antibody, IgG1, V domains shown, Tested as hybridoma supernatant) VH: EVQLLESGGGLVQPGGSLRLSCAASGFTFSSYAMSWVRQAPGKGLEWVSVISDSGGTTDYADSVKGRFTISRDNSKNTLYLQMNSLRAEDTAVYYCARHDYSNRYYFDYWGQGTLVTVSS VL: EIVLTQSPGTLSLSPGERATLSCRASQSFSSNYLAWYQQKPGQAPRLFIYGASSRATGIPDRFSGSGSGTDFTLTISRLEPEDFAVYFCQQYGISPCSFGQGTKLEIK
4.18 nM
